biological target: program cell death protein 1 (PD-1) (UniProt Q15116 25-167, limits assumed); assay: cell-based or functional assay
Sequence (Q15116 25-167 limits assumed): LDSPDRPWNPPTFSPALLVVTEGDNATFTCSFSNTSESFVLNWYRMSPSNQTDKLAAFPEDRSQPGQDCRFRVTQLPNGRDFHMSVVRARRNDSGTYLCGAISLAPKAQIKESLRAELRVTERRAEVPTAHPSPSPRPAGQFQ
quantity-name: IC50 (PD-1/PD-L1 blockade assay) (nM)
Numbers only; they are read as nM.

Query block: Report measured IC50 (PD-1/PD-L1 blockade assay); entry is PD1-8 (antibody, V domains shown, IgG in the assay) VH: QVQLVQSGAEVKKPGASVKVSCKASGYTFSHYGISWVRQAPGQGLEWMGWISPYSGNTKYAQKLQGRVTMTTDTSTSTAYMELRSLRSDDTAVYYCARDNDYSSGSGYWGQGTLVTVSS VL: SYELMQPPSVSVSPGQTARITCSGDELPKQYAYWYQQKPGQAPVLVIYKDNERASGIPERFSGSSSGTTVTLTISGVQAEDEADYYCQSADNSITYRVFGGGTKLTVL
Result block: 1.97

Query block: Report measured IC50 (PD-1/PD-L1 blockade assay); entry is PD1-2 (antibody, V domains shown, IgG in the assay) VH: QVQLVQSGAEVKKPGASVKVSCKASGYSFSNYGISWVRQAPGQGLEWMGWVSAYSGNTNYAQKLQGRVTMTTDTSTSTAYMELRSLRSDDTAVYYCARDADYASGSGYWGQGTLVTVSS VL: SYELMQPPSVSVSPGQTARITCSGDELPNQYAYWYQQKPGQAPVLVIYKDTQRPSGIPERFSGSSSGTTVTLTISGVQAEDEADYYCQSADNSITYRVFGGGTKLTVL
Result block: 0.848

Query block: Report measured IC50 (PD-1/PD-L1 blockade assay); entry is PD1-7 (antibody, V domains shown, IgG in the assay) VH: QVQLVQSGAEVKKPGASVKVSCKASGYTFTHYGITWVRQAPGQGLEWMGWISAYSGSTNYAQKLQGRVTMTTDTSTSTAYMELRSLRSDDTAVYYCARDADYSIGSGYWGQGTLVTVSS VL: SYELMQPPSVSVSPGQTARITCSGDALPNQYAFWYQQKPGQAPVLVIYKDNERPSGIPERFSGSSSGTTVTLTISGVQAEDEADYYCQSADNSITYRVFGGGTKLTVL
Result block: 0.896

Query block: Report measured IC50 (PD-1/PD-L1 blockade assay); entry is PD1-1 (antibody, V domains shown, IgG in the assay) VH: QVQLVQSGAEVKKPGASVKVSCKASGYTFSHYGISWVRQAPGQGLEWMGWVSAYSGNTRYAQKLQGRVTMTTDTSTSTAYMELRSLRSDDTAVYYCARDATYSSGSGYWGQGTLVTVSS VL: SYELMQPPSVSVSPGQTARITCSGDALPTQYAYWYQQKPGQAPVLVIYQDNERPSGIPERFSGSSSGTTVTLTISGVQAEDEADYYCQSADNSITYRVFGGGTKLTVL
Result block: 0.434
